# Experiment Description: Phase 1 trial: population PK model (NONMEM, 1-compartment, oral absorption) and simulations
# Particulars: human, in vivo, po, half-life calculated from population PK model, patients with metastatic cancer
Assay Readout: half-life

Compound | Result
O=[Se](O)O [sodium selenite, Sodium selenite pentahydrate] | ~18.5 h

----------
# Experiment Description: Phase 1 trial: population PK model (NONMEM, 1-compartment, oral absorption) and simulations
# Particulars: both, human, in vivo, 5500 mcg
Assay Readout: AUC (ng·h/mL)

Compound | Unit Spec | Quantitative Result
O=[Se](O)O [sodium selenite, Sodium selenite pentahydrate] | ng·h/mL | 3630

----------
# Experiment Description: Phase 1 trial: population PK model (NONMEM, 1-compartment, oral absorption) and simulations
# Particulars: both, human, in vivo

Compound | Unit Spec | Tmax
O=[Se](O)O [sodium selenite, Sodium selenite pentahydrate] | h | 4.05

----------
# Experiment Description: Phase 1 trial: population PK model (NONMEM, 1-compartment, oral absorption) and simulations
# Particulars: human, in vivo, po, 5.5 mg

Molecule | Cmax / ng/mL
O=[Se](O)O [sodium selenite, Sodium selenite pentahydrate] | 214

----------
# Experiment Description: Phase 1 trial: population PK model (NONMEM, 1-compartment, oral absorption) and simulations
# Particulars: both, human, in vivo, 1100 mcg
Assay Readout: Cmax (µg/mL)

Compound | Unit Spec | Quantitative Result
O=[Se](O)O [sodium selenite, Sodium selenite pentahydrate] | µg/mL | 0.301

----------
# Experiment Description: Phase 1 trial: population PK model (NONMEM, 1-compartment, oral absorption) and simulations
# Particulars: both, human, in vivo, 49500 mcg
Assay Readout: AUC (ng·h/mL)

Molecule | Assay Readout | Unit Spec | Quantitative Result
O=[Se](O)O [sodium selenite, Sodium selenite pentahydrate] | AUC | ng·h/mL | 17000

----------
# Experiment Description: Phase 1 trial: population PK model (NONMEM, 1-compartment, oral absorption) and simulations
# Particulars: both, human, in vivo, 1100 mcg

Compound | AUC / ng·h/mL
O=[Se](O)O [sodium selenite, Sodium selenite pentahydrate] | 6160

----------
# Experiment Description: Phase 1 trial: population PK model (NONMEM, 1-compartment, oral absorption) and simulations
# Particulars: both, human, in vivo, 49500 mcg

Compound | Tmax / h
O=[Se](O)O [sodium selenite, Sodium selenite pentahydrate] | 4.4

----------
# Experiment Description: Phase 1 trial: population PK model (NONMEM, 1-compartment, oral absorption) and simulations
# Particulars: both, human, in vivo, 16500 mcg

Compound | Tmax
O=[Se](O)O [sodium selenite, Sodium selenite pentahydrate] | 4.15 h

----------
# Experiment Description: Phase 1 trial: population PK model (NONMEM, 1-compartment, oral absorption) and simulations
# Particulars: human, in vivo, half-life, simple formulation used in phase 1 trial

Compound | half-life
O=[Se](O)O [sodium selenite, Sodium selenite pentahydrate] | ~19 h

----------
# Experiment Description: Phase 1 trial: population PK model (NONMEM, 1-compartment, oral absorption) and simulations
# Particulars: human, in vivo, po, 33 mg

Molecule | Unit Spec | AUC
O=[Se](O)O [sodium selenite, Sodium selenite pentahydrate] | ng·h/mL | 13300

----------
# Experiment Description: Phase 1 trial: population PK model (NONMEM, 1-compartment, oral absorption) and simulations
# Particulars: both, human, in vivo, 33000 mcg
Assay Readout: AUC (ng·h/mL)

Compound | Unit Spec | Quantitative Result
O=[Se](O)O [sodium selenite, Sodium selenite pentahydrate] | ng·h/mL | 13300

----------
# Experiment Description: Phase 1 trial: population PK model (NONMEM, 1-compartment, oral absorption) and simulations
# Particulars: both, human, in vivo, 5500 mcg
Assay Readout: Tmax (h)

Compound | Assay Readout | Unit Spec | Quantitative Result
O=[Se](O)O [sodium selenite, Sodium selenite pentahydrate] | Tmax | h | 3.65

----------
# Experiment Description: Phase 1 trial: population PK model (NONMEM, 1-compartment, oral absorption) and simulations
# Particulars: both, human, in vivo, 49500 mcg

Molecule | Cmax / ng/mL
O=[Se](O)O [sodium selenite, Sodium selenite pentahydrate] | 593

----------
# Experiment Description: Phase 1 trial: population PK model (NONMEM, 1-compartment, oral absorption) and simulations
# Particulars: both, human, in vivo, 16500 mcg
Assay Readout: AUC (ng·h/mL)

Compound | Quantitative Result
O=[Se](O)O [sodium selenite, Sodium selenite pentahydrate] | 8280

----------
# Experiment Description: Phase 1 trial: population PK model (NONMEM, 1-compartment, oral absorption) and simulations
# Particulars: human, in vivo, po, 49.5 mg

Compound | Cmax, ng/mL
O=[Se](O)O [sodium selenite, Sodium selenite pentahydrate] | 595
